tested on: HPPD polypeptides (wild-type SEQ ID NO:1 and mutants); conditions: in the presence of Cmpd. 2, 15 μM inhibitor, high substrate concentration; kapp normalized to kapp without inhibitor

| Molecule | Residual activity |
| --- | --- |
| 29 (protein, mutant HPPD polypeptide) MADLYENPMGLMGFEFIEFASPTPGTLEPIFEIMGFTKVATHRSKNVHLYRQGEINLILNNEPNSIASYFAAEHGPSVCGMAFRVKDSQKAYNRALELGAQPIHIDTGPMELNLPAIKGIGGAPLYLIDRFGEGSSIYDIDFVYLEGVERNPVGAGLKVIDHLTHNVYRGRMVYWANFYEKLFNFREARYFDIKGEYTGLTSKAMSAPDGMIRIPLNEESSKGAGQIEEFLMQFNGEGIQHVAFLTDDLVKTWDALKKIGMRFMTAPSDSYYEMLEGRLPDHGEPVDQLQARGILLDGSSVEGDKRLLLQIFSETLMGPVFFEFIQRKGDDGFGPHSFKVLFESVERDQVRRGVLTAD | 85% |
